System: OVCAR-8
Experiment: NCI tumour cell line growth inhibition, 48 h
The source made the active and inactive calls. Rule as the data show it: active = GI50 up to about 1.1 µM and inactive = higher.
Hello, when you answer, please use one of the following outcomes: active, inactive

Tell me the recorded outcome of this test for `COc1cc(/C=C2\C[C@H]3[C@@H]4CC=C5C=C(N6CCCC6)CC[C@]5(C)[C@H]4CC[C@]3(C)C2=O)cc(OC)c1OC` .
inactive

Tell me the recorded outcome of this test for CCOC(=O)C1=c2[nH]c3cccc4cccc(c43)n2C(=O)CC1c1ccccc1 (centres undefined) .
inactive

Tell me the recorded outcome of this test for `COc1cc2c3c(c4cc(OC)c(OC)cc4c2cc1OC)[C@H](O)[C@@H]1CCCN1C3` .
active

Tell me the recorded outcome of this test for O=C(CC1C(=O)Nc2ccccc2[S+]1[O-])Nc1ccc(Cl)cc1 (centres undefined) .
inactive
